tested on: ER-alpha MCF7; assay: ER-alpha MCF7 HCS EC50; stated as measured by in vitro cell proliferation assays of Examples 902 and 903; assay type: cell-based; conditions: Homo sapiens, MCF7, MCF7 cells; Table 1
pEC50: −log10 of the molar value.
measured_property: pEC50

(I) C[C@@H]1Cc2c([nH]c3ccccc23)[C@@H](c2c(F)cc(OCCN3CC(CF)C3)cc2F)N1CC1CCC1
(II) C[C@@H]1Cc2c([nH]c3ccccc23)[C@@H](c2c(F)cc(OCCN3CC(CF)C3)cc2F)N1C(=O)C1CC(O)C1 (stereo partly shown)
(III) C[C@@H]1Cc2c([nH]c3ccccc23)[C@@H](c2ccc(OCCN3CC(CF)C3)nc2)N1CC(C)(C)F
Kindly order the items shown according to pEC50, from the highest value down. Use the labels to give the ranking in the order requested.
III, I, II

====

test system: ER-alpha MCF7; assay: ER-alpha MCF7 HCS EC50; stated as measured by in vitro cell proliferation assays of Examples 902 and 903; assay type: cell-based; details: Homo sapiens, MCF7, MCF7 cells; Table 2
pEC50: −log10 of the molar value.
measured_property: pEC50

Reference set, count: 3
compound | observed_measurement
C[C@@H]1Cc2c([nH]c3ccccc23)[C@@H](c2c(F)cc(OC3CN(CCCF)C3)cc2F)N1CC(F)(F)CO | 9.92
CC(C)(F)CN1CCc2c([nH]c3ccccc23)C1c1c(F)cc(OCCN2CC(CF)C2)cc1F (centres unmarked) | 9.30
C[C@@H]1Cc2c([nH]c3ccccc23)[C@@H](c2c(F)cc(OCCN3CC(CF)C3)cc2F)N1C(=O)C1CC(F)C1 (stereo in doubt) | 8.40

(I) C[C@H]1Cc2c([nH]c3cccc(F)c23)[C@H](c2c(F)cc(OC3CN(CCCF)C3)cc2F)N1CC(C)(C)F
(II) C[C@@H]1Cc2c([nH]c3ccccc23)[C@@H](c2ccc(OCCN3CC(CF)C3)c(F)c2)N1CC(C)(C)F
(III) CC(CN1[C@H](c2c(F)cc(OC3CN(CCCF)C3)cc2F)c2[nH]c3ccccc3c2C[C@H]1C)S(C)(=O)=O (some centres unmarked)
(IV) C[C@@H]1Cc2c([nH]c3ccccc23)[C@@H](c2c(F)cc(OC3CN(C4CCC4)C3)cc2F)N1CC(C)(C)F
(V) C[C@@H]1Cc2c([nH]c3ccccc23)[C@H](c2c(F)cc(OCCN3CC(CF)C3)cc2F)N1CC(F)(F)F
Ascending by pEC50, please. Use the labels to give the ranking in the order requested.
I, V, III, IV, II

(P) C[C@H]1Cc2c([nH]c3cc(F)ccc23)[C@H](c2c(F)cc(OC3CN(CCCF)C3)cc2F)N1CC(C)(C)F
(Q) C[C@@H]1Cc2c([nH]c3ccccc23)[C@@H](c2c(F)cc(OC3CN(CCF)C3)cc2F)N1CC(C)(C)F
(R) C[C@@H]1Cc2c([nH]c3ccccc23)[C@@H](c2c(F)cc(OC3CN(CCCF)C3)cc2F)N1CC(F)F
(S) C[C@@H]1Cc2c([nH]c3ccccc23)[C@@H](c2c(F)cc(OCCN3CC(CF)C3)cc2F)N1CC1(C)CCC1
(T) C[C@@H]1Cc2c([nH]c3ccccc23)[C@@H](c2cnc(OC3CN(CCCF)C3)nc2)N1CC(C)(C)F
# desc sort on pEC50 across 5 compounds Use the labels to give the ranking in the order requested.
R, Q, T, S, P

====

test system: ER-alpha MCF7; test: ER-alpha MCF7 HCS EC50; stated as measured by in vitro cell proliferation assays of Examples 902 and 903; assay type: cell-based; settings: Homo sapiens, MCF7, MCF7 cells; Table 2
measured_property: EC50 (nM)

molecule | EC50 (nM)
CC(O)CC(=O)N1[C@H](c2c(F)cc(OCCN3CC(CF)C3)cc2F)c2[nH]c3ccccc3c2C[C@H]1C (stereo partly shown) | 1

(P) C[C@H]1CCN(CCOc2cc(F)c([C@@H]3c4[nH]c5ccccc5c4C[C@@H](C)N3CC(C)(C)F)c(F)c2)C1
(Q) C[C@H]1Cc2c([nH]c3cccc(F)c23)[C@H](c2c(F)cc(NC3CN(CCCF)C3)cc2F)N1C[C@](C)(F)CO
Hi team, can someone confirm which has the larger EC50: P or Q ? Thanks. Please indicate the selected item by its label.
Q
(Q: 2.4 nM, P: 0.483 nM)

====

Tested on: ER-alpha MCF7
Test: ER-alpha MCF7 HCS EC50; stated as measured by in vitro cell proliferation assays of Examples 902 and 903
Format: cell-based
Conditions: Homo sapiens, MCF7, MCF7 cells; Table 2
Description: The CellTiter-Glo® Luminescent Cell Viability Assay is a homogeneous method to determine the number of viable cells in culture based on quantitation of the ATP present, which signals the presence of metabolically active cells. […] Day 5—Develop Plates, Thaw Cell Titer Glo Buffer at room temperature: Remove Cell Plates from 37° C. and equilibrate to room temperature for about 30 minutes. […] Read luminescence on Analyst HT Plate Reader (half second per well). […]
measured_property: EC50 (nM)

Reference set, count: 2
smiles | result_units | EC50
CC1(C)Cc2c([nH]c3ccccc23)[C@H](c2c(F)cc(NC3CN(CCCF)C3)cc2F)N1CC(F)F | nM | 1.8
C[C@@H]1Cc2c([nH]c3cc(F)ccc23)[C@@H](c2c(F)cc(OC3CN(CCCF)C3)cc2F)N1CC(C)(C)F | nM | 0.518

(P) C[C@@H]1Cc2c([nH]c3ccccc23)[C@@H](c2ccc([C@H](O)C3CN(CCCF)C3)cc2)N1CC(C)(C)F
(Q) C[C@@H]1Cc2c([nH]c3ccccc23)[C@@H](c2ccc(OC3CN(CCCF)C3)cc2F)N1CC(C)(C)F
Hi team, can someone confirm which has the larger EC50: P or Q ? Thanks. Please indicate the selected item by its label.
P

====

system: ER-alpha MCF7; experiment: ER-alpha MCF7 HCS EC50; stated as measured by in vitro cell proliferation assays of Examples 902 and 903; format: cell-based; settings: Homo sapiens, MCF7, MCF7 cells; Table 2
measured_property: EC50 (nM)

Reference set, count: 2
smiles | measured_property | observed_measurement
C=CS(=O)(=O)N1[C@H](c2ccc(OCCN3CC(CF)C3)cc2)c2[nH]c3ccccc3c2C[C@H]1C | EC50 | 2
C[C@@H]1Cc2c([nH]c3ccccc23)[C@@H](c2c(F)cc(/C=C/CN3CC(CF)C3)cc2F)N1CC(C)(C)F | EC50 | 0.144

(I) C[C@@H]1Cc2c([nH]c3ccccc23)[C@@H](c2c(F)cc(OCCN3CC(CF)C3)cc2F)N1CC1CC1
(II) C[C@@H]1Cc2c([nH]c3ccccc23)[C@@H](c2c(F)cc(OCCN3CC(CF)C3)cc2F)N1CC1(F)CCC1
Looking only at measured EC50, which entry is lower, I or II ? Please indicate the selected item by its label.
II

====

Tested on: ER-alpha MCF7
Assay: ER-alpha MCF7 HCS EC50; stated as measured by in vitro cell proliferation assays of Examples 902 and 903
Assay type: cell-based
Conditions: Homo sapiens, MCF7, MCF7 cells; Table 2
Method: The CellTiter-Glo® Luminescent Cell Viability Assay is a homogeneous method to determine the number of viable cells in culture based on quantitation of the ATP present, which signals the presence of metabolically active cells. […] Day 5—Develop Plates, Thaw Cell Titer Glo Buffer at room temperature: Remove Cell Plates from 37° C. and equilibrate to room temperature for about 30 minutes. […] Read luminescence on Analyst HT Plate Reader (half second per well). […]
measured_property: EC50 (nM)

Reference set, count: 2
smiles | assayed_target | measured_property | result_units | observed_measurement
C[C@@H]1Cc2c([nH]c3ccccc23)[C@@H](c2c(F)cc(OC3CN(CCCF)C3)cc2F)N1C(=O)C1(C)CC1 | ER-alpha MCF7 | EC50 | nM | 2
C[C@@H]1Cc2c([nH]c3ccccc23)[C@@H](c2c(F)cc(OCCN3CC(CF)C3)cc2F)N1C(=O)c1ccccc1 | ER-alpha MCF7 | EC50 | nM | 14

(1) CC1(C)Cc2c([nH]c3ccccc23)[C@H](c2c(F)cc(NC3CN(CCCF)C3)cc2F)N1CC(F)(F)CO
(2) C[C@@H]1Cc2c([nH]c3ccccc23)[C@@H](c2ccc(OCCN3CC(CF)C3)cc2F)N1C[C@@](C)(F)CO
Hi team, can someone confirm which has the larger EC50: 1 or 2 ? Thanks. Please indicate the selected item by its label.
2

====

test system: ER-alpha MCF7; assay: ER-alpha MCF7 HCS EC50; stated as measured by in vitro cell proliferation assays of Examples 902 and 903; assay type: cell-based; settings: Homo sapiens, MCF7, MCF7 cells; Table 2
pEC50: −log10 of the molar value.
measured_property: pEC50

smiles | pEC50
C[C@@H]1Cc2c([nH]c3cccc(F)c23)[C@@H](c2c(F)cc(OC3CN(CCCF)C3)cc2F)N1CC(C)(C)F | 9.29

(a) C[C@H](CF)C(=O)N1[C@H](c2c(F)cc(OCCN3CC(CF)C3)cc2F)c2[nH]c3ccccc3c2C[C@H]1C
(b) C[C@@H]1Cc2c([nH]c3ccccc23)[C@@H](c2c(F)cc(OC3CN(CCCF)C3)cc2F)N1C[C@@](C)(F)CO
Looking only at measured pEC50, which entry is lower, a or b ? Please indicate the selected item by its label.
a

(P) CC(C)CN1CC(Oc2cc(F)c([C@@H]3c4[nH]c5ccccc5c4C[C@@H](C)N3CC(C)(C)F)c(F)c2)C1
(Q) C[C@@H]1Cc2c([nH]c3ccccc23)[C@@H](c2c(F)cc(OC3CN(C4CC(F)(F)C4)C3)cc2F)N1CC(C)(C)F
Hi team, can someone confirm which has the larger pEC50: P or Q ? Thanks. Please indicate the selected item by its label.
Q
(Q: 9.71, P: 9.39)

(P) C[C@@H]1Cc2c([nH]c3ccccc23)[C@@H](c2c(F)cc(OC3CNC3)cc2F)N1CC(C)(C)F
(Q) C[C@@H]1Cc2c([nH]c3ccccc23)[C@@H](c2ccc(OCCN3CC(CF)C3)c(F)c2F)N1CC(C)(C)F
Looking only at measured pEC50, which entry is lower, P or Q ? Please indicate the selected item by its label.
P
(P: 9.51, Q: 9.74)

Origin of measurements: patent US20250114338A1
